Target: human TLR7 (Homo sapiens, UniProt Q9NYK1)
Sequence (Q9NYK1 27-1049): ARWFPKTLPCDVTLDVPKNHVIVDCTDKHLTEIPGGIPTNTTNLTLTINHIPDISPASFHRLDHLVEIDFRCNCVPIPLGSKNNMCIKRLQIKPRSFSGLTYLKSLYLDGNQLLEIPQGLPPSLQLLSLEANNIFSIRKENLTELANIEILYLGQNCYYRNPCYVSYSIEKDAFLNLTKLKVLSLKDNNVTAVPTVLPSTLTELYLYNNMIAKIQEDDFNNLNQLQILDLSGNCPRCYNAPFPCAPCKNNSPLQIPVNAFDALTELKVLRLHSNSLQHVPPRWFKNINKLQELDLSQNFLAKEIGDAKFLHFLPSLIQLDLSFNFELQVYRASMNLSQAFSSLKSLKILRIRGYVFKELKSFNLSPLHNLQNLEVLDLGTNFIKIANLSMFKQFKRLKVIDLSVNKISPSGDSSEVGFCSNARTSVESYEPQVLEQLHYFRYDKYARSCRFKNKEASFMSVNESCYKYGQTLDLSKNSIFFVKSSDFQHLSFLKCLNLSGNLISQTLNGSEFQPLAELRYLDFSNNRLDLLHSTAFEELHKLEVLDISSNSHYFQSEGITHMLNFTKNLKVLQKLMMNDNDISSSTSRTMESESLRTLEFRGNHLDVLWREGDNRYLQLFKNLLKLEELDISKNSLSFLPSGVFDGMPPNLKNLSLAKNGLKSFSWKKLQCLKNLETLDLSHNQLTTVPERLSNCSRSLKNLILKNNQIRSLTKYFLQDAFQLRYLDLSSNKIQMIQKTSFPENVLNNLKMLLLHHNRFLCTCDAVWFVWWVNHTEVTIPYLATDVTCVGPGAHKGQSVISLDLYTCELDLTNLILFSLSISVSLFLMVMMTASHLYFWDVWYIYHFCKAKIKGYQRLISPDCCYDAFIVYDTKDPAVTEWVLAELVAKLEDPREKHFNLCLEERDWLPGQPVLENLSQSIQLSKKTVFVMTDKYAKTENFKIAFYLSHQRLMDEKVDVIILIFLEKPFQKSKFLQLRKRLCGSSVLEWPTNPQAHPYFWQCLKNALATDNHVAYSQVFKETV
Assay: HEK293-Blue-hTLR-7 cells assay (SEAP reporter, R848 stimulation)
Conditions: HEK293-Blue-hTLR7 cells, R848 ligand, 20 hrs incubation, antagonist
Description: The following tests were carried out in order to determine the activity of the compounds of formula (I) in HEK293-Blue-hTLR-7/8/9 cells assay. HEK293-Blue-hTLR-7 Cells Assay: A stable HEK293-Blue-hTLR-7 cell line was purchased from InvivoGen (Cat. #: hkb-htlr7, San Diego, Calif., USA). These cells were originally designed for studying the stimulation of human TLR7 by monitoring the activation of NF-κB. […]
Checkbox rule: IC50 lower than 20 nM = condition met; IC50 not lower than 20 nM = condition not met.

Some solved entries appear below for comparison.
Bench note: check whether C[C@@H]1CN(c2ccc(C#N)c3ncsc23)C[C@H](CN2CCC3(CCNC3)CC2)O1 shows IC50 below 20 nM
condition not met

Bench note: check whether C[C@@H]1CN(c2ccc(C#N)c3ncsc23)C[C@H](CN2CCC3(CCCN(C)C3)CC2)O1 shows IC50 below 20 nM
condition met

Bench note: check whether C[C@@H]1CN(c2ccc(C#N)c3ncsc23)C[C@H](C(=O)NCC2CN(C)CCO2)O1 (some centres unmarked) shows IC50 below 20 nM
condition met

Bench note: check whether C[C@@H]1CN(c2ccc(C#N)c3ncsc23)C[C@H](CN2CCC3(CCNCC3)CC2)O1 shows IC50 below 20 nM
condition not met

Bench note: check whether C[C@@H]1CN(c2ccc(C#N)c3ncsc23)C[C@H](C(=O)NC2CCN(C)CC2)O1 shows IC50 below 20 nM
condition met

Bench note: check whether C[C@@H]1CN(c2ccc(C#N)c3ncsc23)C[C@H](CN2CCC(N)CC2)O1 shows IC50 below 20 nM
condition not met

Bench note: check whether C[C@@H]1CN(c2ccc(C#N)c3ncsc23)C[C@H](CN2CCC3(CCCNC3)C2)O1 (some centres unmarked) shows IC50 below 20 nM
condition met

Attention now shifts to the item below.
Bench note: check whether C[C@@H]1CN(c2ccc(C#N)c3ncsc23)C[C@H](CN2CCC3(CCCNC3)CC2)O1 shows IC50 below 20 nM
condition met
